# assayTarget: T1, human GIP receptor (human, UniProt P48546 22-466)
# T1 sequence (looked up): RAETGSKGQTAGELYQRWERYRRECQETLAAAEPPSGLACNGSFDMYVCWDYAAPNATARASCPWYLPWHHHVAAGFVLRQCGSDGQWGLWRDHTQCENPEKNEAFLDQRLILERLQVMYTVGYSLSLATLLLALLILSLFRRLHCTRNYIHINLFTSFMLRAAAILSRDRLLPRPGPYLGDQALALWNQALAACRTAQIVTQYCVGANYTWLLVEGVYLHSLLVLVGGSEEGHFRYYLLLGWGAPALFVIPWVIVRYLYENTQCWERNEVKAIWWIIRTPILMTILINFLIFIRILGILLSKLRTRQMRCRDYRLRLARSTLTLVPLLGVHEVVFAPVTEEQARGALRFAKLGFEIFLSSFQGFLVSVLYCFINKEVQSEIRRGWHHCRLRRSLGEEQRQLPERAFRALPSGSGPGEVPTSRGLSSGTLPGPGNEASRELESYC
# measurementDescription: cell-based or functional assay
Bridges are numbered along the chain shown (N, C = ends). Where no end group is shown, it is not given here. [ ]: non-standard residue; d: D form. The star is where a group is joined. Acetyl(2-(4-imidazolyl)) = O=C(Cc1c[nH]cn1)*; Aib = CC(C)(N)C(=O)O
Please go through the items and note down their In vitro activity (%) vs. GIP, cAMP EC50.
Record the value in %, omitting the unit from your answer.

**Query** State the recorded In vitro activity (%) vs. GIP, cAMP EC50 for this entry: {Acetyl(2-(4-imidazolyl))}-[Aib]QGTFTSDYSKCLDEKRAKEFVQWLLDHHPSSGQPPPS (bridge 15-19) [triple agonist of SEQ ID NO: 74]
**Result** 1

**Query** State the recorded In vitro activity (%) vs. GIP, cAMP EC50 for this entry: [Acetyl(2-(4-imidazolyl))][Aib]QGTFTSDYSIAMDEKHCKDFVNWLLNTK (bridge 16-20; ends not checked) [triple agonist of SEQ ID NO: 60]
**Result** 8.2

**Query** State the recorded In vitro activity (%) vs. GIP, cAMP EC50 for this entry: Y[Aib]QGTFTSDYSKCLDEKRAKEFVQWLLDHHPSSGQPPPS (bridge 16-20) [triple agonist of SEQ ID NO: 22]
**Result** 59.7

**Query** State the recorded In vitro activity (%) vs. GIP, cAMP EC50 for this entry: H[Aib]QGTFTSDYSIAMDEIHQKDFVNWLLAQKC (bridge 16-20) [triple agonist of SEQ ID NO: 33]
**Result** 10.4

**Query** State the recorded In vitro activity (%) vs. GIP, cAMP EC50 for this entry: Y[Aib]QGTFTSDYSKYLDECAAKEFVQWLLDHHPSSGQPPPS (bridge 16-20; ends not checked) [triple agonist of SEQ ID NO: 64]
**Result** 92.9

**Query** State the recorded In vitro activity (%) vs. GIP, cAMP EC50 for this entry: Y[Aib]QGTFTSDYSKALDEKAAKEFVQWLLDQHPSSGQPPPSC (bridge 16-20) [triple agonist of SEQ ID NO: 100]
**Result** 118

**Query** State the recorded In vitro activity (%) vs. GIP, cAMP EC50 for this entry: Y[Aib]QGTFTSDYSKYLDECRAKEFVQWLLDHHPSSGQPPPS (bridge 16-20) [triple agonist of SEQ ID NO: 21]
**Result** 22.7

**Query** State the recorded In vitro activity (%) vs. GIP, cAMP EC50 for this entry: [Acetyl(2-(4-imidazolyl))][Aib]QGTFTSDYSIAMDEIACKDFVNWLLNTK (bridge 16-20; ends not checked) [triple agonist of SEQ ID NO: 61]
**Result** 2.8

**Query** State the recorded In vitro activity (%) vs. GIP, cAMP EC50 for this entry: [Acetyl(2-(4-imidazolyl))][Aib]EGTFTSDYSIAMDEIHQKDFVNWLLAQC (bridge 16-20) [triple agonist of SEQ ID NO: 83]
**Result** 0.4

**Query** State the recorded In vitro activity (%) vs. GIP, cAMP EC50 for this entry: Y[Aib]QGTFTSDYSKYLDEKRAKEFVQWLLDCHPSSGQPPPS (bridge 16-20; ends not checked) [triple agonist of SEQ ID NO: 97]
**Result** 2.6
